Reference for the values: ChEMBL document CHEMBL1201862

- Tested on: NCI-H460
- assay: NCI tumour cell line growth inhibition, 48 h
Activity calls are given as the source filed them. Cut-off read from the data, not from the text of the source: active = GI50 up to about 1.1 µM and inactive = higher.
Respond only with the outcome that fits, drawn from active, inactive

As a guide, the following entries are already answered.
compound | classification
CN(C)CCCN1CCc2c([nH]c3ccccc23)C1c1cccnc1 (stereo unspecified) | inactive
Cc1cc([N+](=O)[O-])c(C)c(Br)c1C | inactive
O=C1[C@@H]2C3C=CC([C@H]4C(=O)N(CO)C(=O)[C@@H]34)[C@@H]2C(=O)N1CO | inactive

Hello, I am checking results. What call was entered for NC(=O)c1cc2ccccc2o/c1=N/O ?
inactive

Field: outcome | Entry: CC(C)c1cc(Cl)nc(Cl)n1
inactive

Could you please tell me the result logged for O=C(/C=C/c1ccc(O)c(O)c1)Oc1ccccc1 in this assay?
inactive

Identify the outcome logged in this assay for the compound shown: Clc1ccc(SCCCCCCCCCCSc2ccc(Cl)cc2)cc1
inactive

What did the test return for O=c1[nH]nc(Cc2ccccc2)n1/N=C/c1ccccc1O ?
inactive

Would you mind telling me which call this test gave CN(C)c1ccc(/C=c2/c3ccccc3n3c2cc(/C=C/c2ccccc2)[n+]3C)cc1 ?
active

Could you please tell me the result logged for COc1cc(C=C2C(=O)NC(=O)NC2=O)cc(OC)c1OC in this assay?
inactive

I would be grateful if you could indicate the recorded call for Cc1ccc(NC(=O)CC/C(CC(=O)C(C)(C)C)=N\NC(=O)C[n+]2ccccc2)cc1C .
inactive

* * *

- Tested on: Malme-3M
- assay: NCI tumour cell line growth inhibition, 48 h
Calls of active or inactive are those of the source. Rule as the data show it: active = GI50 up to about 1.1 µM and inactive = higher.
quantity kind: GI50

molecule | meas value
CC1(C)C(=NNC(=O)C[N+](C)(C)C)C(C)(C)C1=NNC(=O)C[N+](C)(C)C | > 100 µM (inactive)
CCOC(=O)C(C)c1nc2cc(N3CCOCC3)c(F)cc2[nH]c1=O (configuration not stated) | > 100 µM (inactive)
O=C1CSC(=S)N1c1ccco1 | > 100 µM (inactive)
Cc1ccc(C2COc3cc(O)c(O)cc3C2)cc1 (configuration not stated) | 18.7 µM (inactive)
CC(C)OCN/C(N)=N\C#N | > 100 µM (inactive)

Consider Nc1ccccc1.O=C(O)C(C(F)(F)F)C(F)(F)F . Its measured GI50 is > 100 µM (inactive)

Consider N#CC1=C(S)N(C2OC(CO)C(O)C(O)C2O)C(c2ccccc2)=CC1c1ccco1 (configuration not stated) . Its measured GI50 is 81.7 µM (inactive)

Lab note: measured GI50 of OC(c1cc(-c2ccc(C(F)(F)F)cc2)nc(C(F)(F)F)c1)C1CCCCN1 (configuration not stated) [ENPIROLINE PHOSPHATE] was 1.78 µM (inactive)

For record CC1OC(n2cc(F)c(=O)[nH]c2=O)C(O[Si](C)(C)C(C)(C)C)C1O[Si](C)(C)C(C)(C)C (configuration not stated) the listed GI50 is 14.9 µM (inactive)

Kindly note the recorded GI50 for CCCCN1CN2C(=O)C(C(=O)OCC)C(=O)c3sc4nc(SC)nc1c4c32 (configuration not stated) , which is 15 µM (inactive)

The recorded GI50 for entry CC(O)C(O)C(O)C(/C=N\Nc1ccccc1)=N/Nc1ccccc1 (configuration not stated) equals 20 µM (inactive)

Record COc1ncnc2c1cnn2Cc1cn(CCCCO)nn1 . Reported GI50: > 100 µM (inactive)

// GI50 lookup, molecule = COc1cc2oc(-c3ccc4c(c3)OCO4)c(OC)c(=O)c2c(OC)c1O , result: > 100 µM (inactive)

Lab note: measured GI50 of CCOc1ccc(-n2c(=O)c3nn4c(=O)n(-c5ccc(OCC)cc5)c(=O)c4nn3c2=O)cc1 was > 100 µM (inactive)

Just so you know, measured GI50 for O=[N+]([O-])c1ccc(-c2nnc(C34CC5CC(CC(C5)C3)C4)o2)cc1 came out at > 100 µM (inactive)

get_value(item= O=[N+]([O-])c1ccc2nc3ccccc3cc2c1 , readout=GI50) returns 2.9 µM (inactive)

Documented GI50 of NC(=S)N1N=C2c3ccccc3CC[C@@H]2[C@@H]1c1ccccc1 : 5.4 µM (inactive)

Data point: CC(=O)NNc1nc(C)c(C(=O)NNC(=O)C(=O)Nc2c(C)cccc2C)s1 ; GI50 = 53.1 µM (inactive)

The recorded GI50 for entry Clc1ccc(C2ON=C(c3ccccc3)N2C23CC4CC(CC(C4)C2)C3)cc1Cl (configuration not stated) equals > 10 µM (inactive)

Per the records, this molecule ( O=C(OCC1CC(C2(O)CCCCC2)C(=O)O1)c1ccccc1 (configuration not stated) ) has GI50 equal to > 100 µM (inactive)

For CC1=C(OC2OC(CO)C(O)C(O)C2O)C(=O)C[C@H]2C1=CC[C@@H]1[C@@]2(C)C(=O)C[C@]2(C)[C@@H]([C@@](C)(O)C(=O)CCC(C)(C)O)[C@H](O)C[C@@]12C (some centres not stated) the molecule record lists GI50 as > 100 µM (inactive)

The recorded GI50 for CCCCNS(=O)(=O)c1n[nH]c(=O)[nH]c1=O is > 100 µM (inactive)

* * *

- System: COLO 205
- assay: NCI tumour cell line growth inhibition, 48 h
Active and inactive are the calls of the source. Cut-off read from the data, not from the text of the source: active = GI50 up to about 1.1 µM and inactive = higher.
Choose one outcome from this list and give only that: t for active, f for inactive

Reference set, count: 10
compound | classification
O=C(O)c1cc(NCc2cc(O)ccc2O)ccc1O | f
NC(=O)c1cc2ccccc2o/c1=N/O | f
C/C(=N\NC(=S)N(C)C)c1ccccn1 | t
CC(C)c1cc(Cl)nc(Cl)n1 | f
O=C1NC2C3CC(OCc4ccccc4)(OCc4ccccc4)C2OC3O1 (configuration not stated) | f
CNC(=O)CN(CC(N)=O)C(N)=O | f
O=C1C2c3[nH]c4ccccc4c3C3CCCCCCC3C2C(=O)N1c1ccccc1 (configuration not stated) | f
COc1ccc(CN/C=N/C(C#N)=C(\N)C#N)cc1OC | f
C=C(CN(C)C)C(=O)c1ccccc1Cl | f
N=C(N)SCCON1C(=O)c2ccccc2C1=O | f

Outcome? O=C(Nc1cccc2ccccc12)c1ccccc1
f

For C/C(=N\NC(=O)c1ccncc1)c1ccccc1F , what call appears in the results of this test?
f

// return assay outcome for COc1ncnc2c1cnn2Cc1cn(CCCCO)nn1
f

Which outcome was entered for the compound O=c1[nH]nc(Cc2ccccc2)n1/N=C/c1ccccc1O in this test?
f

Per the assay record, what outcome was assigned to CC(=O)N1CCN(C=S)CC1 ?
f

What outcome does the record of this test show for N=c1oc2c(Br)cc(Br)cc2cc1C(=O)Nc1ccccn1 ?
f

Write down the call the test reported for this compound. Item: C[C@@]12C[C@@H](c3ccccc3O1)N1CCSC1=N2
f

Record request — test call for O=C1CCC2(CC1CCSc1ccccc1)OCCO2 (configuration not stated)
f

Dear colleague, could you share the recorded outcome for CNC(=O)O/N=C1\N(C)CN(c2ccccc2)C12CCN(CCCC(=O)c1ccc(F)cc1)CC2 when you have a moment?
f

Tell me the recorded outcome of this test for CC1=NN=C(N)N/C1=C\C(Sc1ccc(Cl)cc1)c1ccc(Cl)cc1Cl (configuration not stated) .
f

Which result was noted for this compound in the test: CC(NC(=O)OCc1ccccc1)NC(=O)C(CC(=O)OC(C)(C)C)NC(=O)OC(C)(C)C (configuration not stated)
f

Entry COC(CO[Si](C)(C)N[Si](C)(C)OCC(OC)c1ccccc1)c1ccccc1 (configuration not stated) : call = ?
f

* * *

- Tested on: EKVX
- assay: NCI tumour cell line growth inhibition, 48 h
Activity calls are given as the source filed them. No stated cut-off is given here; in the data, active = GI50 up to about 1.1 µM and inactive = higher.
The categories you may choose from are true (1) = active, false (0) = inactive

For orientation, consider the following solved cases.
compound | target or system | classification
COC(=O)c1nc(NC#N)nc(O)c1C | EKVX | false (0)
COc1ccc(C(=O)Nc2ccccc2)cc1[N+](=O)[O-] | EKVX | false (0)
Cc1ccc(CNc2ccc(Br)cc2)cc1 | EKVX | false (0)
CN(C)c1ccc(/C=c2/c3ccccc3n3c2cc(/C=C/c2ccccc2)[n+]3C)cc1 | EKVX | true (1)
O=[N+]([O-])c1cc(C(F)(F)F)cc2n[se]nc12 | EKVX | false (0)

Please share the test call associated with CN(CCNC(=O)c1n[nH]c2c1Cc1ccccc1-2)CCNC(=O)c1n[nH]c2c1Cc1ccccc1-2 .
false (0)

# lookup: test call for NC1=C(Cl)C(=O)c2ccccc2C1=O
false (0)

How did this test come out for O=C(O)CNS(=O)(=O)c1ccc(NC(=O)CI)cc1 ?
false (0)

What outcome does the record of this test show for O=C1CC[C@@H](S(=O)(=O)c2ccccc2)[C@@H](/C=C/c2ccccc2)O1 ?
false (0)

Returns: the outcome recorded for COc1ccccc1NC(=S)Nc1cc(C)ccn1 in this assay.
false (0)

Could you please tell me the result logged for CCCCCOCC(O)CO (configuration not stated) in this assay?
false (0)

Called result for O=C(CC1(O)C(=O)Nc2ccccc21)c1ccncc1 (configuration not stated)
false (0)
